Where do these numbers come from? They come from paper PMC10786891.

- TARGET_OR_TEST_SYSTEM: T1, EsCas13d, nuclease-dead (Eubacterium siraeum, UniProt B0MS50, R295A;H300A;R849A;H854A)
- T1 sequence: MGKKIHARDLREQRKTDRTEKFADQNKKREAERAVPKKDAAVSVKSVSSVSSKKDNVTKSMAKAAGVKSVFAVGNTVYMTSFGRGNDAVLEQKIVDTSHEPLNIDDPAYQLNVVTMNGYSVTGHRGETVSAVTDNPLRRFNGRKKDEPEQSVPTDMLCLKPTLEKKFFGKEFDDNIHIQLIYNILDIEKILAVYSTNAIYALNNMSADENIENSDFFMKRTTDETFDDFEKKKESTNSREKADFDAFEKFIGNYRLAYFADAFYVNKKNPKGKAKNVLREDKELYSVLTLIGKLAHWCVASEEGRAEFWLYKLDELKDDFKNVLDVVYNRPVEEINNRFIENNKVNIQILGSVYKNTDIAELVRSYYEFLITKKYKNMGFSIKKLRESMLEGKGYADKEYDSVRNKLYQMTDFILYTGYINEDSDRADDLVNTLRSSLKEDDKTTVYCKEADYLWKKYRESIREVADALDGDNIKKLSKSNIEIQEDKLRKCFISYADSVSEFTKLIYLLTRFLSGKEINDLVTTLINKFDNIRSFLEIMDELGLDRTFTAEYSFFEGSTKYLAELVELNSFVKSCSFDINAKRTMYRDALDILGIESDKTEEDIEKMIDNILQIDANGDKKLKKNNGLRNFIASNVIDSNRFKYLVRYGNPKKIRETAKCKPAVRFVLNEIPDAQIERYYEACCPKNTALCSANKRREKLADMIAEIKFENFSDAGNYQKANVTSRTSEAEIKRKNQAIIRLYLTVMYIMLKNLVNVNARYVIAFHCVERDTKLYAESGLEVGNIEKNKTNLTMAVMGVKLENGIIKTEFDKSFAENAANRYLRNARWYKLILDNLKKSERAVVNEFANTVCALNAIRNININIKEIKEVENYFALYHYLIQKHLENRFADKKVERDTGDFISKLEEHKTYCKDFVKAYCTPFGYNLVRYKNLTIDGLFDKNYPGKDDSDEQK
- ASSAY_REMARKS: crRNA (strand 1, pre-loaded); Mg2+; 40 mM Tris-HCl pH 7.5, 150 mM NaCl, 6 mM MgCl2, 1 mM DTT, 0.1% Tween-20, 0.2 mg/ml BSA; 25 C; 10 min per concentration, then washed
- EXPERIMENTAL_PARAMETERS: tags: His6-TwinStrep-SUMO cleaved; N-terminal SNAP kept (SNAP-Surface 488); label: 3' end held by stalled T7 RNA polymerase
Listed below: pKd values for each entry.
Note on pKd: it is the negative log10 of concentration, concentration in mol/L.

target 1 insC 3' of 12,insG 3' of 1 (mixed) RNA 1: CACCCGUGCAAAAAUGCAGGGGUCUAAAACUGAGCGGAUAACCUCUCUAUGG RNA 2: GGGAAUGGAUCCACAUCUACGAAUUCGUACCAUAGAGAGGCUUAUCCGCUCAGCCGAGAUCGGAAGAGCACACGU	8.07

Okay, now this binder:
[ask] # lookup: pKd of target 2 MT 5'PFS GCU 3'PFS CCG (mixed) RNA 1: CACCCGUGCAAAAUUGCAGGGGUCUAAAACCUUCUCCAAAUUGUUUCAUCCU RNA 2: GGGAAUGGAUCCACAUCUACGAAUUCGCUAGGAUGAAACAAUUUGGAGAAGCCGAGAUCGGAAGAGCACACGU
[reply] 7.75
